- testedTarget: T1, RBFOX1 RRM (Homo sapiens, UniProt Q9NWB1 109-208)
- T1 sequence: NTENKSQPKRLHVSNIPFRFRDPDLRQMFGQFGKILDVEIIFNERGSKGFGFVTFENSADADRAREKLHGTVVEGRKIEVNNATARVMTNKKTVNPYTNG
- procedureText: EMSA; HiTS-Eq, 1 nM pool, 10 min; buffer printed only for the single-RNA assays: 10 mM Tris pH 7.5, 150 mM NaCl, 3.4 mM EDTA, 0.001% NP-40, 30 C
- details: tags: His6 N-terminal (pET28a); label: 5' 32P
Over roughly 16,000 sequences, “ka relative to ugcaugu” has its median near 0.0091; the highest 2% begin near 0.032. This is one part of a sample in which the highest values are shown more often than they occur.
binding signal values, listed per item

Worked cases, binding signal given:
binder	binding signal
GGGGUGU (DNA:RNA) RNA: GGGAGACCGGAAUUCAGAUUGUCCGGGGUGUUUAAAUCCCGUCGUAGCCACCA DNA 1: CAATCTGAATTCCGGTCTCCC DNA 2: TGGTGGCTACGACGGGATT	0.038 KA relative to UGCAUGU
GCAUGAA (DNA:RNA) RNA: GGGAGACCGGAAUUCAGAUUGUCCGCAUGAAUUAAAUCCCGUCGUAGCCACCA DNA 1: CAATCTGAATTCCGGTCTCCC DNA 2: TGGTGGCTACGACGGGATT	0.594 KA relative to UGCAUGU
UCGUGAG (DNA:RNA) RNA: GGGAGACCGGAAUUCAGAUUGUCCUCGUGAGUUAAAUCCCGUCGUAGCCACCA DNA 1: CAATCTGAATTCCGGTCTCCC DNA 2: TGGTGGCTACGACGGGATT	0.00953 KA relative to UGCAUGU
GCAUAGA (DNA:RNA) RNA: GGGAGACCGGAAUUCAGAUUGUCCGCAUAGAUUAAAUCCCGUCGUAGCCACCA DNA 1: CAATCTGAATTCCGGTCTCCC DNA 2: TGGTGGCTACGACGGGATT	0.0137 KA relative to UGCAUGU

Enquiry: Given the binder GGUGUGU (DNA:RNA) RNA: GGGAGACCGGAAUUCAGAUUGUCCGGUGUGUUUAAAUCCCGUCGUAGCCACCA DNA 1: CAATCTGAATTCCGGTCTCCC DNA 2: TGGTGGCTACGACGGGATT , write its reported binding signal.
Return: 0.0173 KA relative to UGCAUGU

Enquiry: Given the binder GCAUGAG (DNA:RNA) RNA: GGGAGACCGGAAUUCAGAUUGUCCGCAUGAGUUAAAUCCCGUCGUAGCCACCA DNA 1: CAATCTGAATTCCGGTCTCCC DNA 2: TGGTGGCTACGACGGGATT , write its reported binding signal.
Return: 0.684 KA relative to UGCAUGU

Enquiry: Given the binder AAUCCAC (DNA:RNA) RNA: GGGAGACCGGAAUUCAGAUUGUCCAAUCCACUUAAAUCCCGUCGUAGCCACCA DNA 1: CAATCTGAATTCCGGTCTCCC DNA 2: TGGTGGCTACGACGGGATT , write its reported binding signal.
Return: 0.000933 KA relative to UGCAUGU

Enquiry: Given the binder UACCGUC (DNA:RNA) RNA: GGGAGACCGGAAUUCAGAUUGUCCUACCGUCUUAAAUCCCGUCGUAGCCACCA DNA 1: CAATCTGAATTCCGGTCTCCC DNA 2: TGGTGGCTACGACGGGATT , write its reported binding signal.
Return: 0.0072 KA relative to UGCAUGU

Enquiry: Given the binder UGCGGUG (DNA:RNA) RNA: GGGAGACCGGAAUUCAGAUUGUCCUGCGGUGUUAAAUCCCGUCGUAGCCACCA DNA 1: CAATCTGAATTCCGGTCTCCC DNA 2: TGGTGGCTACGACGGGATT , write its reported binding signal.
Return: 0.0288 KA relative to UGCAUGU
